- Tested on: HSV-1
- experimentalProtocol: HSV Antiviral (ELISA) assay
- Type: cell-based
- conditionDescription: HSV-1 in Vero cells
measuredAttribute: IC50 (ug/ml) HSV

// solved cases for IC50 (ug/ml) HSV follow
O=C(Nc1ccc(NC(=S)NCCSc2ccccc2)cc1)c1ccco1 ... 6 µg/mL
CN(c1ccc(NC(=S)Nc2ccc(NC(=O)c3ccco3)cc2)cc1Cl)C1CCCCC1 ... >10 µg/mL
O=C(Nc1ccc(NC(=S)NCCc2ccccc2Cl)cc1)c1csnn1 ... 10 µg/mL
CC1CCCCN1CC(=O)Nc1ccc(NC(=S)Nc2ccc(NC(=O)c3ccco3)cc2)cc1Cl (stereo not drawn) ... 3 µg/mL
O=C(Nc1ccc(NC(=S)NCCc2ccccc2F)cc1)c1ccco1 ... >10 µg/mL

[in] Entry under review: "O=C(Nc1ccc(NC(=S)NCCc2ccc(F)cc2C(F)(F)F)cc1)c1csnn1" . Reported IC50 (ug/ml) HSV?
[out] >10 µg/mL

[in] Entry "COc1cc(OC)c(NC(=S)Nc2ccc(NC(=O)c3cccnc3)cc2)cc1Cl" please
[out] 2.5 µg/mL

[in] Same read-out for "CC(C)(C)c1ccc(CNC(=S)Nc2ccc(NC(=O)c3csnn3)cc2)cc1" ?
[out] 7 µg/mL

[in] Cool, now "O=C(Nc1ccc(NC(=S)NCc2ccc(F)c(F)c2)cc1)c1csnn1"
[out] >10 µg/mL

[in] Would you kindly repeat that for "CN(C)c1cc(Cl)cc(NC(=S)Nc2ccc(NC(=O)c3csnn3)cc2)c1" ?
[out] >10 µg/mL

[in] Next: "O=C(Nc1ccc(NC(=S)Nc2cccc(C(F)(F)F)c2)cc1)c1ccco1"
[out] >10 µg/mL

[in] Can you handle "COc1cc(OC)c(NC(=S)Nc2ccc(NC(=O)c3c[nH]nn3)cc2)cc1Cl" next?
[out] 50 µg/mL

[in] What about "CN(C)c1cccc(NC(=S)Nc2ccc(NC(=O)c3csnn3)cc2)c1" ?
[out] >10 µg/mL

[in] What do you get for "O=C(Nc1ccc(NC(=S)NCCc2cc(C(F)(F)F)ccc2F)cc1)c1csnn1" ?
[out] >10 µg/mL

---

- Tested on: HSV-1
- experimentalProtocol: HSV Antiviral (ELISA) assay
- Format: cell-based
- conditionDescription: HSV-1 in Vero cells
Catalogue of molecules with associated IC50 (ug/ml) HSV

Would you please look over these solved cases?
O=C(Nc1ccc(NC(=S)Nc2ccc(NC(=O)c3ccco3)cc2)cc1Cl)c1ccccc1 [Example 403] ... 6 µg/mL
COc1cccc(CCNC(=S)Nc2ccc(NC(=O)c3csnn3)cc2)c1 [Example 637] ... >10 µg/mL
O=C(Nc1ccc(NC(=S)Nc2cccc(I)c2)cc1)c1csnn1 [Example 508] ... >10 µg/mL
O=C(Nc1ccc(NC(=S)Nc2ccc(NC(=O)c3ccccc3F)cc2)cc1Cl)OCCN1CCCCC1 [Example 438] ... 5 µg/mL
COc1cc(NC(=S)Nc2ccc(NC(=O)c3ccco3)cc2)cc(OC)c1 [Example 467] ... >10 µg/mL
O=C(Nc1ccc(NC(=S)Nc2ccc(Cl)c(C(F)(F)F)c2)cc1)c1csnn1 [Example 200] ... >10 µg/mL

[in] Would you kindly share the measured IC50 (ug/ml) HSV for Nc1cc(Cl)cc(NC(=S)Nc2ccc(NC(=O)c3csnn3)cc2)c1 [Example 466] ?
[out] >10 µg/mL

[in] What do you have for N#Cc1cccc(NC(=S)Nc2ccc(NC(=O)c3csnn3)cc2)c1 [Example 453] ?
[out] >10 µg/mL

[in] Please do the same for Cc1cc(C)cc(CNC(=S)Nc2ccc(NC(=O)c3csnn3)cc2)c1 [Example 691] as well.
[out] >10 µg/mL
